# target entity: adrenergic, beta-1 (human) (Homo sapiens, UniProt P08588)
# Sequence (P08588 whole entry): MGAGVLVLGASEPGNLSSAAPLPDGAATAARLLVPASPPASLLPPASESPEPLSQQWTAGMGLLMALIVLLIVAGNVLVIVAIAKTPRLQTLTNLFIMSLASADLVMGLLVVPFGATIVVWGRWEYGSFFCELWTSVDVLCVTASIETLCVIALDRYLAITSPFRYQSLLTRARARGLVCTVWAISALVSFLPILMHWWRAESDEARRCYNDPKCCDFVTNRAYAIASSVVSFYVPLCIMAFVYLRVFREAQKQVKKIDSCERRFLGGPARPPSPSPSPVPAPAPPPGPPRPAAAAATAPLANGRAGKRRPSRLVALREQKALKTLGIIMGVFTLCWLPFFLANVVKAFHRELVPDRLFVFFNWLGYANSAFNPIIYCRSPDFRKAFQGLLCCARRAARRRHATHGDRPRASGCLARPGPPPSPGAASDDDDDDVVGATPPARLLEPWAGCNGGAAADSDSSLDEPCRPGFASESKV
# protocol notes: adrenergic, beta-1 (human) binding assay; human recombinant Sf9 cells, membranes, Europium time-resolved fluorescence
# experimental conditions: Table 2, 30 nM isoproterenol
pIC50: −log10 of the molar value.
// values below are reported pIC50

[
  {
    "compound": "COCCOCCOCCOCCOCCO[C@@H](CNC(C)C)COc1cccc2ccccc12 [Propranolol Conjugate C]",
    "target entity": "adrenergic, beta-1 (human) (Homo sapiens, UniProt P08588)",
    "pIC50": 5.30
  },
  {
    "compound": "COCCOCCOCCO[C@@H](CNC(C)C)COc1cccc2ccccc12 [Propranolol Conjugate A]",
    "target entity": "adrenergic, beta-1 (human) (Homo sapiens, UniProt P08588)",
    "pIC50": 5.75
  },
  {
    "compound": "COCCOCCOCCOCC(=O)O[C@@H](CNC(C)C)COc1cccc2ccccc12 [Propranolol Conjugate F]",
    "target entity": "adrenergic, beta-1 (human) (Homo sapiens, UniProt P08588)",
    "pIC50": 5.27
  },
  {
    "compound": "COCCOCCOCCOCC(=O)O[C@H](COc1cccc2ccccc12)CN(C(=O)COCCOCCOCCOC)C(C)C [Propranolol Conjugate B]",
    "target entity": "adrenergic, beta-1 (human) (Homo sapiens, UniProt P08588)",
    "pIC50": 5.42
  }
]
